Assay: NCI Yeast Anticancer Drug Screen. Data for the cln2 rad14 strain (AID 165);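 further: 0% = growth equal to vehicle treated cultures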
Conditions: S. cerevisiae cln2 rad14 strain, at 5.0 µM (retest, dose inferred, filed as 0.5), active compounds read high
The panel holds about 79,000 compounds, 15% with a hit somewhere; the sample as a whole holds those more often.
Please mark MET if the recorded growth inhibition is equal to or greater than 10%, and NOT MET if it falls below.

Solved entries:
INSERT INTO measurements (molecule, label_value) VALUES
  ('Cn1c2ccccc2c2nnc(N/N=C/c3ccccn3)nc21', 'NOT MET'),
  ('c1ccc(CCc2c[nH]c3ccccc23)cc1', 'NOT MET'),
  ('C/C(CCSCc1ccccc1)=N/NC(N)=S', 'NOT MET'),
  ('c1ccc(N/N=C(/CC/C(=N\Nc2ccccc2)c2ccccc2)c2ccccc2)cc1', 'NOT MET'),
  ('Cc1cc2cc3c(c(C(=O)O)c2o1)C(=O)c1ccc2ccccc2c1C3', 'MET'),
  ('C/C(=N\NC(=S)N(C)CCN(C)C(=S)N/N=C(\C)c1ccccn1)c1ccccn1', 'NOT MET'),
  ('CCCCCCCCCCCCCCCCN(CC)CC', 'MET'),
  ('CC(C)(Sc1cc(Cl)c(Cl)c(Cl)c1)C(=O)OCCN1CCOCC1', 'MET'),
  ('COC1C=COC2(C)Oc3c(C)c(O)c4c(O)c(c(C5SCCS5)c(O)c4c3C2=O)NC(=O)C(C)=C/C=C\C(C)C2OC(C)(C)OC(C2C)C(C)C(OC(C)=O)C1C (stereo not given)', 'MET');

Does the reported growth inhibition for CC(C)C(=O)OCC(C)(C)C1OCC(C)(C)C(C(C)C)O1 (stereo not given) fall at or above the 10% mark?
NOT MET

---

Assay: NCI Yeast Anticancer Drug Screen. Data for the cln2 rad14 strain (AID 165);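 further: 0% = growth equal to vehicle treated cultures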
Details: S. cerevisiae cln2 rad14 strain, at 50.0 µM (retest, dose inferred, filed as 5.0), active compounds read high
Compounds without any hit were thinned out: in the full panel of roughly 79,000, 15% have a hit.
// growth inhibition lookup, one value per entry
Expressed in %, but write only the number.

Some solved cases for reference:
INSERT INTO results (compound, measured_number) VALUES
  ('CCOC(=O)c1c(I)[nH]c(I)c1C', 3),
  ('CC(C)c1ccc2nc3ccc(C(=O)NCCN4CCN(c5ccccc5)CC4)cn3c(=O)c2c1', 97),
  ('CCCCN(CCCC)Cc1ccc(NC(C(=O)c2ccccc2)c2ccccc2)cc1 (stereo unspecified)', 34);

Give the reported value of growth inhibition for this record: CCCCCCCCCCCCCCCCCC(=O)OCC(O)COC(=O)CCCCCCCCCCCCCCCCC
-13

Recall and state the measured growth inhibition for CCCCn1cnc2c(SCc3ccc(F)cc3)nc(N)nc21 .
49

Name the recorded growth inhibition of the item C=CC[C@]1(C(C)C(OC(C)=O)c2ccc3c(c2)OCO3)C[C@@H](OC)C=CC1=O (stereo partly specified) in your answer.
98

// fetch growth inhibition given entry O=C(CN(Cc1ccccc1)Cc1ccccc1)c1ccccc1
45

For the compound COC1(OC)CNC(C(=O)O)C1 (stereo unspecified) , give its reported growth inhibition.
-49

Look up and state reported growth inhibition for O=C1C(=O)N(C(=O)c2ccc(Cl)c(Cl)c2)c2ccc(Cl)cc21
-20

Return the recorded growth inhibition value; entry: O=S(=O)(Nc1ccnn1-c1ccccc1)c1ccc(N=Cc2c3ccccc3nc3cc(Cl)ccc23)cc1
-1

Quote growth inhibition reported for O=C(O)c1cc2cc3ccccc3cc2cc1O please.
14

---

The following compounds are shown together with reported growth inhibition values.
Assay: NCI Yeast Anticancer Drug Screen. Data for the rad50 strain (AID 155);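 further: 0% = growth of vehicle-only cultures of the same strain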
Conditions: S. cerevisiae rad50 strain growth inhibition; at 50.0 µM; active compounds read high
The panel holds about 79,000 compounds, 15% with a hit somewhere; the sample as a whole holds those more often. Active and inactive are the calls of the source. No stated cut-off is given here; in the data, active means growth inhibition above about 70%; inactive means the rest.

These recorded examples may help you get a feel for the data.
INSERT INTO results (given_smiles, result) VALUES
  ('CCOC(=O)/C=C(\C)Sc1cc(O)c2ccccc2c1O', '68.9% (inactive)'),
  ('Cc1ccc2c(c1)[n+]([O-])c(N)c(C#N)[n+]2[O-]', '68.5% (inactive)'),
  ('N#CCCN(CCCN1CCOCC1)C(=S)Nc1cccc(C(F)(F)F)c1', '42.9% (inactive)'),
  ('O=C1C=CC(=O)N1C1CCCCC1', '99.6% (active)'),
  ('Cc1cc(NS(=O)(=O)c2ccc(Nc3c4ccccc4nc4c(C(=O)NC(CO)(CO)CO)cccc34)cc2)no1', '75.2% (active)');

Now let's try a different one.
Let me know recorded growth inhibition for Cc1ccc(-c2c3c(cc4cc(C)ccc24)C(=O)OC3=O)cc1 , thanks.
14.8% (inactive)

---

Assay: NCI Yeast Anticancer Drug Screen. Data for the mec2-1 strain (AID 157)
Details: S. cerevisiae mec2-1 strain, at 5.0 µM (retest, dose inferred, filed as 0.5), active compounds read high
About 79,000 compounds went through this panel and 15% of them were active in at least one assay; those are over-represented in the sample as a whole.
Label TRUE when growth inhibition is at or above 10%; anything below gets FALSE.

Solved cases (5 shown):
INSERT INTO results (compound, label_value) VALUES
  ('Clc1cccc(N2CCN(c3c4c(nc5ccccc35)CCCCC4)CC2)c1', 'TRUE'),
  ('Cc1cc(SC#N)cc(C)c1O', 'FALSE'),
  ('Oc1ccc(CNCc2ccccc2)c2cccnc12', 'FALSE'),
  ('CCCCCCN(CCCCCC)CCC(=O)c1ccc2cc(Br)c3ccccc3c2c1', 'TRUE'),
  ('CCN(CC)C(=S)N/N=C/c1cc([N+](=O)[O-])ccc1O', 'TRUE');

For this compound, is measured growth inhibition 10% or higher? O=C(NNc1nc(-c2ccccc2)cs1)Nc1ccccc1
TRUE

// inclusive: growth inhibition at least 10%? input: CC(=O)Nc1ccc(/S(=N\S(=O)(=O)c2ccc(C)cc2)c2ccc(NC(C)=O)cn2)cc1 (stereo unspecified)
FALSE

# bool: growth inhibition of CCCCSc1n[nH]c(=O)nc1SC >= 10%
FALSE

Assess whether reported growth inhibition for C1=NCCN=Cc2ccccc2NCCNc2ccccc21 sits at 10% or higher.
FALSE

growth inhibition >= 10% for Cc1ccc(S(=O)(=O)Nc2ccc3c(c2)C(=O)c2ccccc2-3)cc1 ?
FALSE

---

Experiment: NCI Yeast Anticancer Drug Screen. Data for the sgs1 mgt1 strain (AID 161);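 further: 0% = growth of cultures given vehicle only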
Settings: S. cerevisiae sgs1 mgt1 strain, at 50.0 µM (retest, dose inferred, filed as 5.0), active compounds read high
This is part of a sample that, as a whole, favours compounds with a hit. Of some 79,000 tested, about 15% had one in any assay.
Measured Endpoint: growth inhibition (%)
Report only the number, with the unit % understood.

Known results for molecules:
INSERT INTO results (molecule, measured_endpoint, measured_number) VALUES
  ('Clc1ccc2c(NCCCCCCNc3ccnc4cc(Cl)ccc34)ccnc2c1', 'growth inhibition', 95),
  ('Cc1ccc(S(=O)(=O)N2CCN3C(=O)c4ccccc4C32c2ccc(F)cc2)cc1 (stereo unspecified)', 'growth inhibition', 99),
  ('S=C1Nc2cnc3ccccc3c2SC1c1ccccc1 (stereo unspecified)', 'growth inhibition', 98),
  ('CCCCCCCN=C(N)c1ccc(C(=O)OCc2ccccc2)cc1', 'growth inhibition', 95),
  ('CCOC(=O)CC(NC(=O)c1[nH]cnc1/N=N/N(C)C)C(=O)OCC (stereo unspecified)', 'growth inhibition', 95),
  ('CCNC(=S)NNC(=S)NNc1ccccc1', 'growth inhibition', 70),
  ('COC1(CO)C(=O)N(C)CC(=O)N1C (stereo unspecified)', 'growth inhibition', 99),
  ('O=C(O)CCSCc1cc(C(=O)Nc2ccc(/C=C/c3ccc(NC(=O)c4cc(CSCCC(=O)O)c5cccnc5c4O)cc3S(=O)(=O)O)c(S(=O)(=O)O)c2)c(O)c2ncccc12', 'growth inhibition', 53);

Identify measured growth inhibition corresponding to O=C(Nc1ccccc1)Oc1c(Cl)c(Cl)c(Cl)c(Cl)c1Cl
99

Given the molecule O=C(Nc1ccc(C(=O)c2ccccc2)cc1)Nc1ccc(Cl)c(Cl)c1 , write its reported growth inhibition.
97

Give growth inhibition for the following molecule: CC[N+]1(C)CCC(O)(/C=C/c2ccccc2)C(C(=O)/C=C/c2ccccc2)C1 (stereo unspecified)
54

Specify measured growth inhibition for Cn1cc(NC(=O)Nc2cc(C(=O)Nc3cc(C(=O)Nc4ccc5cc(S(=O)(=O)O)cc(S(=O)(=O)O)c5c4)n(C)c3)n(C)c2)cc1C(=O)Nc1cc(C(=O)Nc2ccc3cc(S(=O)(=O)O)cc(S(=O)(=O)O)c3c2)n(C)c1 .
99

Tell me its growth inhibition given O=[N+]([O-])c1ccc(Cl)cc1C=NC12CC3CC(CC(C3)C1)C2 as the entry.
23

Please supply the value of reported growth inhibition for the item CCCCn1cnc2c(SCc3ccc(F)cc3)nc(N)nc21
16

Using known records, supply growth inhibition for O=C(/C=C/C=C/c1ccccc1)c1ccco1
28

Return reported growth inhibition. Input molecule: Cc1ccc(NS(=O)(=O)c2ccc(C)cc2)cc1
92

Tell me growth inhibition reported for CC(=O)OC1C(C)OC(OC(=O)C2CCC3C(C2)OC2(CC(OC(=O)/C=C/c4ccccc4)C(C)CO2)C32CO2)C(OC2OC(C)C(O)C(OC(C)=O)C2O)C1O (stereo unspecified)
99

// Input: S=c1[nH]c2ccc(Cl)cc2s1 . Output its growth inhibition only.
92
